Just for reference, the supplement of paper PMC4466140 is where these values come from.

biological target: CaLsb1; assay: SPOT peptide array binding signal intensity (averaged, normalized) (arbitrary units (background-subtracted, floor 0; scale differs between SH3 domains)); higher = stronger binding of the SH3 domain to the peptide
Entries and their measured SPOT peptide array binding signal intensity follow.
value.kind: SPOT peptide array binding signal intensity

binder=PPIPIVPSSPAPPLP measurement="≤ 0"
binder=NPNRRAPRRPLSTQH measurement="≤ 0"
binder=PSRRDSLSIPRAVDA measurement="≤ 0"
